- Test System: T1, P12-AA
- T1 chain: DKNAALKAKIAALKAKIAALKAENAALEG
- Method Notes: two-hybrid library CCmax;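 further: natural log of median RNA to DNA barcode read ratio; higher means stronger binding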
- Conditions Used: mean of both orientations
Assay Endpoint: interaction score

DKLAAAKAEIAALEAELAANEAKKAALKG [AP8-AA] | -0.366
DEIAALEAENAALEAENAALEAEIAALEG [P1-AA] | -0.335
DENAALEAEIAALEAEIAALEAKNAALKG [P11-AA] | 1.97
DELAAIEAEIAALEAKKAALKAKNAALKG [AP3-AA] | -1.03
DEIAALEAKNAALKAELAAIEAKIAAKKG [AP5-AA] | -1.41

1: DKNAALKAENAALEAKIAALKAKIAALKG [P10-AA]
2: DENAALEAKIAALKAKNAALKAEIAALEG [4H1401-AA]
stdin: Response body: label of entry with the larger interaction score; valid values 1 , 2 . To answer, give the label that identifies your chosen option.
stdout: 1
(1: -1.23, 2: -1.92)

These measurements were taken from paper PMC10397247.
